Reference source for all entries: ChEMBL document CHEMBL3351700

In this section we review reported Ki values for a set of compounds.
tested.on: Glutamate receptor ionotropic, NMDA 2B (Homo sapiens, UniProt Q05586+Q13224)
Sequence (Q13224 whole entry, one chain of several): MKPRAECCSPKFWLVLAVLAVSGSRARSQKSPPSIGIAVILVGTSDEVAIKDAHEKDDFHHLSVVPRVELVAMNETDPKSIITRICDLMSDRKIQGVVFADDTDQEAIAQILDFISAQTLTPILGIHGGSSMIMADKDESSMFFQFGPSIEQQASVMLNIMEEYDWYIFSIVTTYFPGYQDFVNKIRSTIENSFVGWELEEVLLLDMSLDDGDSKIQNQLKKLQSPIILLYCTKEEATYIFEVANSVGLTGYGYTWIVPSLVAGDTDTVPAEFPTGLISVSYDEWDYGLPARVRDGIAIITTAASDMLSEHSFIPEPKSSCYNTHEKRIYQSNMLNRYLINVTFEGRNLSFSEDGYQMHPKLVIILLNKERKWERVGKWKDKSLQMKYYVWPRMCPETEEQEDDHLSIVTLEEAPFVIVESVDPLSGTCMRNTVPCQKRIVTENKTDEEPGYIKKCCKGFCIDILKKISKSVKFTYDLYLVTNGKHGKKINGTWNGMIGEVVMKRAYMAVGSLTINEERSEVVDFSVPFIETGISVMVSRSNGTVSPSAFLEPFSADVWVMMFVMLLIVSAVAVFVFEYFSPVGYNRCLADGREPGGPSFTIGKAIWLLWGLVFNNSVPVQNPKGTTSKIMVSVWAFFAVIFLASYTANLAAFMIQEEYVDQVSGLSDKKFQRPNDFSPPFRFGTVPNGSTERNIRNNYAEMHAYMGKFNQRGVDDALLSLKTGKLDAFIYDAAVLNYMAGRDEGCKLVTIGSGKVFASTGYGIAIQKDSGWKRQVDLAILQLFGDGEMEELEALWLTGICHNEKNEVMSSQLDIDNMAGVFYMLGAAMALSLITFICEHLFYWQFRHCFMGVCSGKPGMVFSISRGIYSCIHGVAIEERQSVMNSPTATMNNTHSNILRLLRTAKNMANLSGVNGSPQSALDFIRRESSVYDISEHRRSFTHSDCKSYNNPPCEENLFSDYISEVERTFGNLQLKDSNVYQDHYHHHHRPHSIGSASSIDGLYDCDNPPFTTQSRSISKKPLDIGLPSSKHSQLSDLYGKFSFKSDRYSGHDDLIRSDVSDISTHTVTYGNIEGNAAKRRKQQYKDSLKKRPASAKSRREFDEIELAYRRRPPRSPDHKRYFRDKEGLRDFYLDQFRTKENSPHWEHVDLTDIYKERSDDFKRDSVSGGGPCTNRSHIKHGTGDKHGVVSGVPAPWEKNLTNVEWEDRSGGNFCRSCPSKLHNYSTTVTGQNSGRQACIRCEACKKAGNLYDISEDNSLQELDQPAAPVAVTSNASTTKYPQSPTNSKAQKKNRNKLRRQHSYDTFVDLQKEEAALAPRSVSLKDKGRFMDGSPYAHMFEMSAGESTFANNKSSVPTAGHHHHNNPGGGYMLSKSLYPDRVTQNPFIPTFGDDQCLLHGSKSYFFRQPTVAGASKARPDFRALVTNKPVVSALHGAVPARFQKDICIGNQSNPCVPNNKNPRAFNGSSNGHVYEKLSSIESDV
assay.remarks: Displacement of [3H]ifenprodil from human GluN2B expressed in mouse L(tk-) cells co-expressing GluN1a after 120 mins by scintillation counting method
Format: cell-based
observation.type: Ki (nM)

compound="COc1ccc2c(c1)CCC(NCCCc1ccccc1)CC2O (stereo not given)" value=16
compound=c1ccc(C2CCN(C3CCc4ccccc4CC3)CC2)cc1 value=6.9
compound=c1ccc(N2CCN(C3CCc4ccccc4CC3)CC2)cc1 value=12
compound="COc1ccc2c(c1)CCC(NCCCc1ccccc1)CC2 (stereo not given)" value=10
compound=c1ccc(CCCNC2CCc3ccccc3CC2)cc1 value=16

====

Species: Cavia porcellus
assay.remarks: Displacement of [3H]-(+)-MK-801 from N-methyl D-aspartate receptor phencyclidine binding site in guinea pig brain cortex membranes at 1 uM after 150 mins by scintillation counting method
Type: cell membranes
observation.type: inhibition (%)

compound=c1ccc(CC2CCN(C3CCc4ccccc4CC3)CC2)cc1 result_units=% value=30
compound="COc1ccc2c(c1)CCC(NCCCc1ccccc1)CC2 (configuration not stated)" result_units=% value=0
compound="COc1ccc2c(c1)CCN(CCCCc1ccccc1)CC2O (configuration not stated)" result_units=% value=22
compound="COc1ccc2c(c1)CCC(NCCCc1ccccc1)CC2O (configuration not stated)" result_units=% value=12
compound=c1ccc([C@H]2CC[C@H](NC3CCc4ccccc4CC3)CC2)cc1 result_units=% value=30
compound=c1ccc([C@H]2CC[C@@H](NC3CCc4ccccc4CC3)CC2)cc1 result_units=% value=43
compound=c1ccc(CCCCNC2CCc3ccccc3CC2)cc1 result_units=% value=2
compound=c1ccc(CNC2CCc3ccccc3CC2)cc1 result_units=% value=16
compound=c1ccc(CCNC2CCc3ccccc3CC2)cc1 result_units=% value=0
compound=c1ccc(C2CCN(C3CCc4ccccc4CC3)CC2)cc1 result_units=% value=11
compound=c1ccc(N2CCN(C3CCc4ccccc4CC3)CC2)cc1 result_units=% value=5
compound=c1ccc(CCCNC2CCc3ccccc3CC2)cc1 result_units=% value=0

====

tested.on: Glutamate receptor ionotropic, NMDA 2B (Homo sapiens, UniProt Q05586+Q13224)
assay.remarks: Displacement of [3H]ifenprodil from human GluN2B expressed in mouse L(tk-) cells co-expressing GluN1a after 120 mins by scintillation counting method
pKi: −log10 of the molar value.
observation.type: pKi

molecule_smiles=c1ccc([C@H]2CC[C@H](NC3CCc4ccccc4CC3)CC2)cc1 value=8.24
molecule_smiles=c1ccc(CNC2CCc3ccccc3CC2)cc1 value=7.24
molecule_smiles=c1ccc(CCCCNC2CCc3ccccc3CC2)cc1 value=7.77
molecule_smiles=c1ccc(CC2CCN(C3CCc4ccccc4CC3)CC2)cc1 value=8.54
molecule_smiles=c1ccc(CCNC2CCc3ccccc3CC2)cc1 value=7.70
molecule_smiles=c1ccc([C@H]2CC[C@@H](NC3CCc4ccccc4CC3)CC2)cc1 value=8.64

====

In this section we review reported Ki values for a set of compounds.
tested.on: Sigma non-opioid intracellular receptor 1 (Cavia porcellus, UniProt Q60492)
Sequence (Q60492 whole entry): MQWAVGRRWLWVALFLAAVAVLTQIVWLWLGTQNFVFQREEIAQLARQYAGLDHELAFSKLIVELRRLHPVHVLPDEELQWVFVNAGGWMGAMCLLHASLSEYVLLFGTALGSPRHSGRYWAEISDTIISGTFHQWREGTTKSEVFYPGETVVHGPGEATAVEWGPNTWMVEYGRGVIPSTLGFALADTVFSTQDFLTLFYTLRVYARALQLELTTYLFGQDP
assay.remarks: Displacement of [3H](+)-pentazocine from sigma1 receptor in guinea pig brain membranes after 180 mins by scintillation counting method
observation.type: Ki

compound="COc1ccc2c(c1)CCC(NCCCc1ccccc1)CC2 (stereo unspecified)" observation_type=Ki value="0.027 µM"
compound=c1ccc(CC2CCN(C3CCc4ccccc4CC3)CC2)cc1 observation_type=Ki value="0.0057 µM"
compound=c1ccc(CCNC2CCc3ccccc3CC2)cc1 observation_type=Ki value="0.022 µM"
compound=c1ccc(CNC2CCc3ccccc3CC2)cc1 observation_type=Ki value="0.107 µM"
compound=c1ccc(CCCCNC2CCc3ccccc3CC2)cc1 observation_type=Ki value="0.216 µM"
compound=c1ccc(N2CCN(C3CCc4ccccc4CC3)CC2)cc1 observation_type=Ki value="0.182 µM"
compound=c1ccc(C2CCN(C3CCc4ccccc4CC3)CC2)cc1 observation_type=Ki value="0.022 µM"
compound=c1ccc(CCCNC2CCc3ccccc3CC2)cc1 observation_type=Ki value="0.15 µM"
compound=c1ccc([C@H]2CC[C@@H](NC3CCc4ccccc4CC3)CC2)cc1 observation_type=Ki value="0.014 µM"
compound=c1ccc([C@H]2CC[C@H](NC3CCc4ccccc4CC3)CC2)cc1 observation_type=Ki value="0.02 µM"
compound="COc1ccc2c(c1)CCC(NCCCc1ccccc1)CC2O (stereo unspecified)" observation_type=Ki value="0.132 µM"

====

In this section we review reported pKi values for a set of compounds.
assay.remarks: Displacement of [3H]DTG from sigma2 receptor in rat liver membranes after 180 mins by scintillation counting method
Assay type: cell membranes, Membrane
pKi: −log10 of the molar value.
observation.type: pKi

compound=c1ccc(C2CCN(C3CCc4ccccc4CC3)CC2)cc1 observation_type=pKi value=7.74
compound=c1ccc([C@H]2CC[C@H](NC3CCc4ccccc4CC3)CC2)cc1 observation_type=pKi value=7.85
compound="COc1ccc2c(c1)CCC(NCCCc1ccccc1)CC2O (stereo unspecified)" observation_type=pKi value=8.04
compound="COc1ccc2c(c1)CCC(NCCCc1ccccc1)CC2 (stereo unspecified)" observation_type=pKi value=7.82
compound="COc1ccc2c(c1)CCN(CCCCc1ccccc1)CC2O (stereo unspecified)" observation_type=pKi value=6.26
compound=c1ccc(CCNC2CCc3ccccc3CC2)cc1 observation_type=pKi value=6.70

====

assay.remarks: Displacement of [3H]DTG from sigma2 receptor in rat liver membranes after 180 mins by scintillation counting method
Assay type: cell membranes, Membrane
pKi: −log10 of the molar value.
In this section we review reported pKi values for a set of compounds.
observation.type: pKi

molecule_smiles=c1ccc(CCCCNC2CCc3ccccc3CC2)cc1 value=7.26
molecule_smiles=c1ccc(N2CCN(C3CCc4ccccc4CC3)CC2)cc1 value=6.70
molecule_smiles=c1ccc(CCCNC2CCc3ccccc3CC2)cc1 value=7.57
molecule_smiles=c1ccc([C@H]2CC[C@@H](NC3CCc4ccccc4CC3)CC2)cc1 value=8.52
molecule_smiles=c1ccc(CC2CCN(C3CCc4ccccc4CC3)CC2)cc1 value=8.27
molecule_smiles=c1ccc(CNC2CCc3ccccc3CC2)cc1 value=6.69
